# Test system: HTT mRNA
# test.description: Splicing RT-qPCR assay, HTT canonical (CJ) and alternative (AJ) junction mRNA
# Format: cell-based, human
# test.conditions: Homo sapiens, canonical junction mRNA, qPCR panel; read-out: HTT CJ (decrease in CJ mRNA levels, IC50)
pIC50: −log10 of the molar value.
property: pIC50

| compound | pIC50 |
| --- | --- |
| C[C@@H]1CN(c2cnc3nc(-c4cc5cn(C)nc5cc4O)ccc3c2Cl)C[C@H](C)N1 | 5.00 to 6.00 |
| CN[C@@H]1CN(c2cnc3nc(-c4cc5cn(C)nc5c(C)c4O)ccc3c2)C[C@@H]1F | 6.00 to 7.00 |
| Cn1cc2cc(-c3cc(Cl)c4cc(N5CC[C@@H](NC(C)(C)C)C5)cnc4n3)c(O)c(F)c2n1 | < 5.00 |
| COc1nc(-c2cc3cn(C)nc3c(F)c2O)nc2ncc(N3C[C@@H](C)N[C@@H](C)C3)cc12 | > 7.00 |
| Cc1c(O)c(-c2ccc3cc(N4CCC(N(C)C)CC4)cnc3n2)cc2cn(C)nc12 | 6.00 to 7.00 |

## Task // returns reported pIC50 for input `CN1CCC[C@H]2CN(c3cnc4nc(-c5cc6cn(C)nc6c(F)c5O)cc(Cl)c4c3)C[C@H]21`
## Result 5.00 to 6.00

## Task Quick check: pIC50 of CN[C@H]1CN(c2cnc3nc(-c4cc5cn(C)nc5c(C)c4O)ccc3c2)C[C@@H]1F (single isomer, unassigned) ?
## Result 5.00 to 6.00
